Molecular target: T1, human GITR on naïve CD4+ T cells (human, UniProt Q9Y5U5 26-241)
T1 sequence: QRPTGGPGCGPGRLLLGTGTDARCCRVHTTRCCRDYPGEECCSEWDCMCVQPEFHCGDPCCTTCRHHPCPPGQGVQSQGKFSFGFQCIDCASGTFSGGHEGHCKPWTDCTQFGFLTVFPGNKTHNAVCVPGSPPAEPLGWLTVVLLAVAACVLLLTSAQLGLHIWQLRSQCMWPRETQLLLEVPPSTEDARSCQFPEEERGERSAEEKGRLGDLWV
Assay: cell-based or functional assay
measurementName: proliferation of naïve CD4+ T cells, mean, at 416.7 ng/mL Ab
Form field (numeric): enter value without unit.

Request: Give the measured proliferation of naïve CD4+ T cells, mean, at 416.7 ng/mL Ab of 31H6 (antibody, V domains shown, Parental rodent anti-human GITR monoclonal antibody from a hybridoma; kappa VL; also called 31H6.B7) VH: QVTLKESGPGILQPSQTLSLTCTFSGFSLSTYGVGVGWIRQPSGKGLEWLANIWWDDDKYYNPSLKNRLTISKDTSNNQAFLKITNVDTAETATYYCAQIKEPRDWFFEFWGPGTMVSVSS VL: DIQMTQTPSSMPASLGERVTIFCRASQGVNNYLTWYQQKPDGTIKPLIFYTSNLQSGVPSRFSGSGSGTDYSLSISSLEPEDFAMYYCQQYHGFPNTFGAGTKLELKR .
Result: 86900
